B1: Zinc finger homeobox protein 4, residues 2562 to 2617; numbered along this chain, Q86UP3 (parent)
chain: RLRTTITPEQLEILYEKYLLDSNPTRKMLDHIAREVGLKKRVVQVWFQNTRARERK

# Variants of: B1
# Experiment Summary: abundance fitness (aPCA) (normalised: wild type 0, dead -1); higher = more abundant; growth selection in yeast, the domain comes from the species named
# Measurement Context: Homo sapiens
Answer each item with its documented abundance fitness.
Just the number, please, no unit after it.

Query :: Item "E35R" has what recorded abundance fitness?
Result :: -0.654

Query :: Item "A33G" has what recorded abundance fitness?
Result :: -0.344

Query :: Item "N23Q" has what recorded abundance fitness?
Result :: 0.013

Query :: Item "D21T" has what recorded abundance fitness?
Result :: -0.458

Query :: Item "H31Q" has what recorded abundance fitness?
Result :: 0.176

Query :: Item "L29G" has what recorded abundance fitness?
Result :: -0.94

Query :: Item "L19C" has what recorded abundance fitness?
Result :: -0.084

Query :: Item "E35W" has what recorded abundance fitness?
Result :: -0.597

Query :: Item "L19T" has what recorded abundance fitness?
Result :: -0.175

Query :: Item "E35M" has what recorded abundance fitness?
Result :: -0.279

Query :: Item "L19M" has what recorded abundance fitness?
Result :: -0.131

Query :: Item "R26T" has what recorded abundance fitness?
Result :: 0.52

Query :: Item "A33D" has what recorded abundance fitness?
Result :: -0.526

Query :: Item "K27H" has what recorded abundance fitness?
Result :: 0.083

Query :: Item "S22G" has what recorded abundance fitness?
Result :: -0.059

Query :: Item "T25R" has what recorded abundance fitness?
Result :: -0.72

Query :: Item "T25H" has what recorded abundance fitness?
Result :: -0.596

Query :: Item "L19Q" has what recorded abundance fitness?
Result :: -0.214

Query :: Item "H31W" has what recorded abundance fitness?
Result :: -0.119

Query :: Item "R34Y" has what recorded abundance fitness?
Result :: 0.245

Query :: Item "L38T" has what recorded abundance fitness?
Result :: -0.933

Query :: Item "L38I" has what recorded abundance fitness?
Result :: -0.025

Values from the Human Domainome abundance scans (Beltran et al. 2025)
